// each record: one item and its pIC50 for Prostaglandin G/H synthase 1 (Ovis aries, UniProt P05979)
The quantity pIC50 is defined as the negative base-10 logarithm of the molar concentration.

line.notation	pIC50
O=C1NC(=O)/C(=C/c2ccc(OCc3cn(CC(=O)c4ccc(Cl)cc4)nn3)cc2)S1	4.96

Output reported pIC50 of the compound O=C1NC(=S)S/C1=C\c1ccc(OCc2cn(CC(=O)c3ccc(Br)cc3)nn2)cc1 on Prostaglandin G/H synthase 1 (Ovis aries, UniProt P05979). 4.83

###

test.description: Inhibition of soya bean 15-LOX by colorimetric lipoxygenase inhibitor screening assay kit method
Parameters: species or system Glycine max
reported.endpoint: IC50
Quote the value and follow it with the unit of measurement.

molecule	IC50
CC(Cc1ccc(O)c(O)c1)C(C)Cc1ccc(O)c(O)c1 (stereo not given) [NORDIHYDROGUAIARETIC ACID]	10.2 µM
O=c1c(O)c(-c2ccc(O)c(O)c2)oc2cc(O)cc(O)c12	3.27 µM
O=C1NC(=S)S/C1=C\c1ccc(OCc2cn(CC(=O)c3ccc(Br)cc3)nn2)cc1	4.34 µM
O=C1NC(=O)/C(=C/c2ccc(OCc3cn(CC(=O)c4ccc(Br)cc4)nn3)cc2)S1	4.97 µM

Please report the measured IC50 for O=C1NC(=S)S/C1=C\c1ccc(OCc2cn(CC(=O)c3ccc(Cl)cc3)nn2)cc1 4.22 µM

###

System: THP-1
test.description: Inhibition of PMA-induced human THP1 monocytes differentiation in to macrophages assessed as macrophage metabolic activity preincubated for 6 hrs before PMA stimulation
reported.endpoint: pIC50
The quantity pIC50 is defined as the negative base-10 logarithm of the molar concentration.

Please report the measured pIC50 for O=C(O)Cc1ccccc1Nc1c(Cl)cccc1Cl 3.84
